Ref: paper PMC12692147

biological target: integrins in an immobilized erythrocyte ghost membrane; assay: SAW biosensor binding of disintegrins to immobilized erythrocyte ghosts; design: species or system human; details: SAW (sam-X), erythrocyte ghosts immobilized via hydrophobic interactions (CH3-SAM); running buffer PBS pH 7.4, 25 °C, 20 μL/min; 1:1 binding model, KD = koff/kon; experiments in triplicate; ±
Kd values, listed per item

SUBSTANCE	Kd
CTTGPCCRQCKLKPAGTTCW-----KTS--LTSHYCTGKSCDCPLYPG (disulfide) [Obtustatin]	232 nM

## Task Quick check: Kd of ECESGPCCRNCKFLKEGTICKR—ARGD-DMDDYCNGKTCDCPRNPHKGPAT (disulfide) [Echistatin] ?
## Result 2100 nM
